Test system: MDA-MB-468
Experiment: Cytotoxicity assay (MTS, 72 h)
Format: cell-based, human
Conditions: Homo sapiens, MDA-MB-468; Table 1; read-out: IC50 (nM) Breast MDA-MB-468
Each entry below carries its reported IC50.

{"moleculeSmiles": "COc1ccc2c(c1)NC(=O)CN2c1nc(C)nc2c1CCC2", "operator": "=", "IC50 (nM)": 1.8}
{"moleculeSmiles": "COc1ccc2c(c1)NC(=O)CN2c1nc(Cl)nc2ccoc12", "operator": "=", "IC50 (nM)": 6.4}
{"moleculeSmiles": "CCNc1nc2c(c(N3CC(=O)Nc4cc(OC)ccc43)n1)CCC2", "operator": "=", "IC50 (nM)": 0.8}
{"moleculeSmiles": "COc1ccc2c(c1)NC(=O)CN2c1nc(C)nc2onc(C)c12", "operator": "=", "IC50 (nM)": 7.5}
{"moleculeSmiles": "COc1ccc2c(c1)NC(=O)CN2c1nc(Cl)nc2c1CCC2", "operator": "=", "IC50 (nM)": 5.6}
{"moleculeSmiles": "COc1ccc2c(c1)NC(=O)CN2c1nc(Cl)nc(C)c1C", "operator": ">", "IC50 (nM)": 1000}
{"moleculeSmiles": "COc1cc2c(cc1F)N(c1nc(Cl)nc3cccnc13)CC(=O)N2", "operator": "=", "IC50 (nM)": 940}
{"moleculeSmiles": "COc1ccc2c(c1)NC(=O)CN2c1ncnc2c1CCC2", "operator": "=", "IC50 (nM)": 15.6}
{"moleculeSmiles": "COc1ccc2c(c1)NC(=O)CN2c1cc(C)nc2cccnc12", "operator": "=", "IC50 (nM)": 18.5}
{"moleculeSmiles": "COc1ccc2c(c1)NC(=O)CN2c1nc(Cl)nc2c1CCCC2", "operator": ">", "IC50 (nM)": 1000}

---

Each entry below carries its reported IC50.
Test system: M14
Test: Cytotoxicity assay (MTS, 72 h)
Details: Homo sapiens, M14, read-out: IC50 (nM) Melanoma M14

{"moleculeSmiles": "COc1cc2c(cc1F)N(c1nc(Cl)nc3cccnc13)CC(=O)N2", "IC50": "> 1000 nM"}
{"moleculeSmiles": "COc1ccc2c(c1)NC(=O)CN2c1nc(Cl)nc(C)c1C", "IC50": "> 1000 nM"}
{"moleculeSmiles": "COc1ccc2c(c1)NC(=O)CN2c1nc(Cl)nc2c1CCCC2", "IC50": "> 1000 nM"}
